For each record, write down the corresponding Stability.
# assayOverview: Chemical stability of compound in distilled water assessed as compound remaining at pH 7 at 100 ug/ml after 8 hrs
# Assay type: physicochemical
# conditionDescription: buffer, pH 7, 8 h

The molecule identified as `C[C@H](N)C(=O)OC[C@H]1CN(c2ccc(-c3ccc(-c4nnn(C)n4)nc3)c(F)c2)C(=O)O1.O=C(O)C(F)(F)F` registered its Stability at 6.3%

Reported Stability ( `Cn1nnc(-c2ccc(-c3ccc(N4C[C@H](COC(=O)[C@@H]5CCCN5)OC4=O)cc3F)cn2)n1.O=C(O)C(F)(F)F` ) = 0.2%

Query `C[C@H](N)C(=O)OC[C@H]1CN(c2ccc(-c3ccc(-c4nnn(C)n4)nc3)c(F)c2)C(=O)O1.Cl` yields Stability of 7.5%

# Stability of `CC(C)[C@H](N)C(=O)OC[C@H]1CN(c2ccc(-c3ccc(-c4nnn(C)n4)nc3)c(F)c2)C(=O)O1.Cl` = 60.9%

Looking up `Cn1nnc(-c2ccc(-c3ccc(N4C[C@H](COC(=O)CCN)OC4=O)cc3F)cn2)n1.O=C(O)C(F)(F)F` , I found its Stability recorded as 94.9%

Measured Stability of `Cn1nnc(-c2ccc(-c3ccc(N4C[C@H](COC(=O)CN)OC4=O)cc3F)cn2)n1.O=C(O)C(F)(F)F` : 8.1%

response.value for `CC(C)[C@H](N)C(=O)OC[C@H]1CN(c2ccc(-c3ccc(-c4nnn(C)n4)nc3)c(F)c2)C(=O)O1.O=C(O)C(F)(F)F` (field: Stability) = 51.2%

The measured Stability associated with `Cl.Cn1nnc(-c2ccc(-c3ccc(N4C[C@H](COC(=O)CN)OC4=O)cc3F)cn2)n1` reads 11.6%

The molecule listed as `Cl.Cn1nnc(-c2ccc(-c3ccc(N4C[C@H](COC(=O)CCN)OC4=O)cc3F)cn2)n1` shows Stability equal to 50.5%
